# EXPERIMENT_SUMMARY: CelltiterGlo viability cell assay
# Type: cell-based
# COND: human, MDA-MB-436 cells, MDA MB436, 3 day, 0.1 uM; read-out: viability Replicate 1
READOUT_NAME: viability at 3 day, 0.1 µM (%)
Write the answer as a number in %, unit excluded.

(Q) Can you look up the measured viability at 3 day, 0.1 µM of COc1cc(OC)cc(-c2noc(N3CCN(C)C4(CCN(c5ccnc(C)c5)CC4)C3)n2)c1 [MRK-740] for me?
(A) 123

---

# EXPERIMENT_SUMMARY: CelltiterGlo viability cell assay
# Format: cell-based
# COND: human, HCC1806 breast cancer cells, HCC1806, 6 day, 0.3 uM; read-out: viability Replicate 1
READOUT_NAME: viability at 6 day, 0.3 µM (%)
Write the answer as a number in %, unit excluded.

(Q) Can you look up the measured viability at 6 day, 0.3 µM of `COc1cc(OC)cc(-c2noc(N3CCN(C)C4(CCN(c5ccnc(C)c5)CC4)C3)n2)c1` for me?
(A) 113

---

# EXPERIMENT_SUMMARY: CelltiterGlo viability cell assay
# Assay type: cell-based
# COND: human, CAL851 breast cancer cells, CAL851, 3 day, 0.01 uM; read-out: viability Replicate 1
READOUT_NAME: viability at 3 day, 0.01 µM (%)
Write the answer as a number in %, unit excluded.

(Q) Can you look up the measured viability at 3 day, 0.01 µM of `COc1cc(OC)cc(-c2noc(N3CCN(C)C4(CCN(c5ccnc(C)c5)CC4)C3)n2)c1` for me?
(A) 91.6

---

# EXPERIMENT_SUMMARY: CelltiterGlo viability cell assay
# Format: cell-based
# COND: human, HCC1143 cells, HCC1143, 3 day, 0.1 uM; read-out: viability Replicate 2
READOUT_NAME: viability at 3 day, 0.1 µM (%)
Write the answer as a number in %, unit excluded.

(Q) Can you look up the measured viability at 3 day, 0.1 µM of `COc1cc(OC)cc(-c2noc(N3CCN(C)C4(CCN(c5ccnc(C)c5)CC4)C3)n2)c1` for me?
(A) 90.7

---

# EXPERIMENT_SUMMARY: CelltiterGlo viability cell assay
# Type: cell-based
# COND: human, HCC1143 breast cancer cells, HCC1143, 3 day, 0.3 uM; read-out: viability Replicate 2
READOUT_NAME: viability at 3 day, 0.3 µM (%)
Write the answer as a number in %, unit excluded.

(Q) Can you look up the measured viability at 3 day, 0.3 µM of `COc1cc(OC)cc(-c2noc(N3CCN(C)C4(CCN(c5ccnc(C)c5)CC4)C3)n2)c1` for me?
(A) 97.7

---

# EXPERIMENT_SUMMARY: CelltiterGlo viability cell assay
# Format: cell-based
# COND: human, CAL851 cells, CAL851, 3 day, 0.3 uM; read-out: viability Replicate 2
READOUT_NAME: viability at 3 day, 0.3 µM (%)
Write the answer as a number in %, unit excluded.

(Q) Can you look up the measured viability at 3 day, 0.3 µM of `COc1cc(OC)cc(-c2noc(N3CCN(C)C4(CCN(c5ccnc(C)c5)CC4)C3)n2)c1` for me?
(A) 97.8

---

# EXPERIMENT_SUMMARY: CelltiterGlo viability cell assay
# Type: cell-based
# COND: human, HCC1143 breast cancer cells, HCC1143, 3 day, 1 uM; read-out: viability Replicate 2
READOUT_NAME: viability at 3 day, 1 µM (%)
Write the answer as a number in %, unit excluded.

(Q) Can you look up the measured viability at 3 day, 1 µM of `COc1cc(OC)cc(-c2noc(N3CCN(C)C4(CCN(c5ccnc(C)c5)CC4)C3)n2)c1` for me?
(A) 93.9
